target: TYK2 (Homo sapiens, UniProt P29597); experiment: Functional assay of protein kinases (Caliper mobility shift), TYK2; settings: ATP 20 μM, 45 min incubation
Sequence (P29597 871-1187 limits assumed): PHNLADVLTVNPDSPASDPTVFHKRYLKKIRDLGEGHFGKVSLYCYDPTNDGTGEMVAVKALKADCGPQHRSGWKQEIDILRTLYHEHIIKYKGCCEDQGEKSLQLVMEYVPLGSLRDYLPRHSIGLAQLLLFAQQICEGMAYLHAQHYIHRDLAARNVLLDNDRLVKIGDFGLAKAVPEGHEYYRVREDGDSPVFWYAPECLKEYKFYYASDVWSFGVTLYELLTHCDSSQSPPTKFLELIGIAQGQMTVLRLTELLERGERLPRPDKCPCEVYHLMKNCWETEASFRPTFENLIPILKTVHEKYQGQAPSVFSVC
Entries and their IC50

[
  {
    "COMPOUND": "O=C(NC1CCC(C(=O)O)CC1)c1cccn2c(=O)c3cc(Br)ccc3nc12 (centres unmarked) [Example 24]",
    "IC50": "100 to 1000 nM"
  }
]

Now take the following compound into account.
Record O=C(N[C@H]1CC[C@@H](C(=O)O)CC1)c1cccn2c(=O)c3cc(C4CC4)ccc3nc12 [Example 3] . Reported IC50: < 100 nM

---

target: TYK2 (Homo sapiens, UniProt P29597); assay: Functional assay of protein kinases (Caliper mobility shift), TYK2; settings: ATP 20 μM, 45 min incubation
pIC50: −log10 of the molar value.
MEASURED ATTRIBUTE: pIC50

The examples below pair each entry with its known result.
[
  {
    "MOLECULE": "N#Cc1ccc(-c2ccc3nc4c(C(=O)N[C@H]5CC[C@@H](C(=O)O)CC5)cccn4c(=O)c3c2)s1",
    "pIC50": "> 7.00"
  },
  {
    "MOLECULE": "Cc1cc(C(=O)NC2CCC(C(=O)O)CC2)c2nc3ccccc3c(=O)n2c1 (stereo not drawn)",
    "pIC50": "> 7.00"
  }
]

Now take the following molecule into account.
Record O=C(N[C@H]1CC[C@@H](C(=O)O)CC1)c1cccn2c(=O)c3cc(-c4ccc(C5CC5)s4)ccc3nc12 . Reported pIC50: > 7.00
